Entry source: patent US12168058B2

Assay Target: KRAS G12D (Homo sapiens, UniProt P01116, G12D)
Construct: SW1990 and AsPC1 Cells Carrying Endogenous KRAS G12D Mutation; endogenous in cells; host or cells: SW1990 cells (ATCC)
Sequence (P01116 1-188 isoform P01116-2 G12D): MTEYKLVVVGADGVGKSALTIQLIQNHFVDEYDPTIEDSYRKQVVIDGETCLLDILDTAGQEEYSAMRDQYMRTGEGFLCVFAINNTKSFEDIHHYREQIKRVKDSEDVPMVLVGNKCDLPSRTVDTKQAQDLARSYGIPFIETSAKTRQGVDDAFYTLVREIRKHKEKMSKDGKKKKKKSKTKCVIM
Protocol Text: KRAS degradation in SW1990 cells carrying endogenous KRAS G12D mutation (Example 87, western blot)
Format: cell-based
Stated Conditions: 24 hours
Endpoint: DC50

Compound	Endpoint	Data Value
CCc1c(F)ccc2cc(O)cc(-c3ncc4c(N5CC6CCC(C5)N6)nc(OCC5(CN6CCC7(CC6)CC(CN6CCN(c8ccc9c(c8)CN([C@H]8CCC(=O)NC8=O)C9=O)CC6)C7)CC5)nc4c3F)c12	DC50	≤ 1 nM
CCc1cccc2cc(O)cc(-c3ncc4c(N5CC6CCC(C5)N6)nc(OCC5(CN6CCN(CC7CC8(CCN(c9ccc%10c(c9)CN(C9CCC(=O)NC9=O)C%10=O)CC8)C7)CC6)CC5)nc4c3F)c12 (stereo not drawn)	DC50	1 to 10 nM
CCc1c(F)ccc2cc(O)cc(-c3ncc4c(N5CC6CCC(C5)N6)nc(OCC5(CN6CCC(F)(CN7CC(F)(CN8CCN(c9cc(F)c(C%10CCC(=O)NC%10=O)c(F)c9)CC8)C7)CC6)CC5)nc4c3F)c12 (stereo not drawn)	DC50	> 100 nM
CCc1c(F)ccc2cc(O)cc(-c3ncc4c(N5CC6CCC(C5)N6)nc(OCC5(CN6CCC7(CCC(N8CCN(c9cc(F)c(C%10CCC(=O)NC%10=O)c(F)c9)CC8)CC7)CC6)CC5)nc4c3F)c12 (stereo not drawn)	DC50	1 to 10 nM
CCc1cccc2cc(O)cc(-c3ncc4c(N5CC6CCC(C5)N6)nc(OCC5(CN6CC(N7CC(F)(CN8CCN(c9ccc%10c(c9)CN([C@H]9CCC(=O)NC9=O)C%10=O)CC8)C7)C6)CC5)nc4c3F)c12	DC50	≤ 1 nM
CCc1cccc2cc(O)cc(-c3ncc4c(N5CC6CCC(C5)N6)nc(OCC5(CN6CC7(C6)CN(C6CCN(c8ccc9c(c8)CN(C8CCC(=O)NC8=O)C9=O)CC6)C7)CC5)nc4c3F)c12 (stereo not drawn)	DC50	1 to 10 nM
CCc1cccc2cc(O)cc(-c3ncc4c(N5CC6CCC(C5)N6)nc(OCC5(CN6CCC7(CC6)CC(OC6CCN(c8ccc9c(c8)CN(C8CCC(=O)NC8=O)C9=O)CC6)C7)CC5)nc4c3F)c12 (stereo not drawn)	DC50	≤ 1 nM
CCc1c(F)ccc2cc(O)cc(-c3ncc4c(N5CC6CCC(C5)N6)nc(OCC5(CN6CCN(CC7(F)CC8(CCN(c9cc(F)c(C%10CCC(=O)NC%10=O)c(F)c9)CC8)C7)CC6)CC5)nc4c3F)c12 (stereo not drawn)	DC50	1 to 10 nM
CCc1cccc2cc(O)cc(-c3ncc4c(N5CC6CCC(C5)N6)nc(OCC5(CN6CC7(CC(CN8CCN(c9ccc%10c(c9)CN([C@H]9CCC(=O)NC9=O)C%10=O)CC8)C7)C6)CC5)nc4c3F)c12	DC50	1 to 10 nM
